Values compiled from patent US11498899B2.

- System: corn (Zea mays)
- PROTOCOL_DESCRIPTION: Test A postemergence, visual injury rating 0-100
- Type: in vivo
- MEASUREMENT_CONTEXT: 500 g ai/ha, 0 to 100 scale
Measured Corn plant response rating, listed per entry for reference.
Kindly provide the number alone.

For orientation, consider the following solved cases.
CC1=[N+]([O-])[C@@H](C(=O)Nc2cccc(F)c2F)[C@H](c2ccc(C(F)(F)F)cc2)C1 (relative stereo): 80
CC1=[N+]([O-])C(C(=O)Nc2cccc(F)c2F)C(c2ccc(F)cc2Oc2ncc(F)cn2)C1 (racemic): 90
CC1=[N+]([O-])C(C(=O)Nc2cccc(F)c2F)C(c2cc(F)cc(Oc3ccc(Cl)nc3)c2)C1 (racemic): 40

## Task Endpoint output: Corn plant response rating of CC1=[N+]([O-])C(C(=O)Nc2cccc(F)c2F)C(c2cc(F)c(F)c(Oc3ncc(F)cn3)c2)C1 (racemic) . Value?
## Result 90

## Task Requested read-out: Corn plant response rating. Entry: CC1=[N+]([O-])C(C(=O)Nc2cccc(F)c2F)C(c2cccc(Cl)c2C)C1 (racemic)
## Result 70

## Task Consider the compound shown here: CC1=[N+]([O-])C(C(=O)Nc2cccc(F)c2F)C(c2cccc(F)c2)C1 (racemic) What is its recorded Corn plant response rating?
## Result 0

## Task Look up Corn plant response rating: CC1=[N+]([O-])C(C(=O)Nc2cccc(F)c2F)C(c2ccc(C)c(C)c2)C1 (racemic)
## Result 90

## Task Which Corn plant response rating is listed for CC1=[N+]([O-])C(C(=O)Nc2cccc(F)c2C#N)C(c2ccc(C(F)(F)F)cc2)C1 (racemic) ?
## Result 0

###

Recorded Ragweed plant response rating values for a group of compounds are listed next.
- System: ragweed (common ragweed, Ambrosia elatior)
- PROTOCOL_DESCRIPTION: Test A postemergence, visual injury rating 0-100
- Type: in vivo
- MEASUREMENT_CONTEXT: 500 g ai/ha, 0 to 100 scale
Give your answer as a number; write no unit.

In the examples that follow, each entry is paired with its recorded Ragweed plant response rating.
CC1=[N+]([O-])C(C(=O)Nc2cccc(F)c2F)C(c2cc(C(F)(F)F)cc(C(F)(F)F)c2)C1 (racemic): 70
CC1=[N+]([O-])C(C(=O)Nc2cccc(F)c2F)C(c2cccc(Oc3ncc(Cl)cn3)c2)C1 (racemic): 20
CC1=[N+]([O-])C(C(=O)Nc2cccc(F)c2F)C(c2ccc(Cl)c(C(F)(F)F)c2)C1 (racemic): 70

## Task So what does the record say about Ragweed plant response rating for CC1=[N+]([O-])C(C(=O)Nc2cccc(F)c2F)C(c2cccc(Oc3ccc(F)cc3)c2)C1 (racemic) ?
## Result 0

###

Parameter: Foxtail, Green plant response rating. Scope: all listed entries.
- System: foxtail, green (green foxtail, Setaria viridis)
- PROTOCOL_DESCRIPTION: Test A preemergence, visual injury rating 0-100
- Assay type: in vivo
- MEASUREMENT_CONTEXT: 500 g ai/ha, 0 to 100 scale
Format: numeric value only, no unit, no commentary.

Example molecules with recorded Foxtail, Green plant response rating:
CC1=[N+]([O-])C(C(=O)Nc2cccc(F)c2F)C(c2ccc(C)c(C)c2)C1 (racemic): 90
CC1=[N+]([O-])C(C(=O)Nc2cccc(C#N)c2F)C(c2ccc(C(F)(F)F)cc2)C1 (racemic): 100

## Task Lab note: need Foxtail, Green plant response rating for CC1=[N+]([O-])C(C(=O)Nc2ccccc2)C(c2ccc(F)c(F)c2)C1 (racemic) on foxtail, green (green foxtail, Setaria viridis), anyone have it?
## Result 50
